# credit: the nanobody polyreactivity screen of Harvey et al. (2022)

- Method description: yeast display, Sf9 membrane polyspecificity reagent, FACS + sequencing; frameworks hold sequencing errors
Measure name: polyreactivity (PSR sort gate)

Known results for sequences:
Biosequence	Measure name	Experimental result
QVQLVESGGGLVQAGGSLRLSCAASGSIFRINDMGWYRQAPGKERELVAAITFSGGSTYADSVKGRFTISRDNAKNTVNLQMNSLKPEDTAVYYCNADGAYWTDYYLYDYWGQGTQVTVSS	polyreactivity (PSR sort gate)	low polyreactivity
EVQLVESGGGVDQAVGSLRLSCAASGSIFLFYARGWYRQARGKEMELVARISFRSTSTYYADSVKGRFTISLDNAKYTVSLQMNSLKPEDTAVYYCATRTWYGYLYDYWGQGTQVTVSS	polyreactivity (PSR sort gate)	high polyreactivity
QDQLVESGGGLVQAGGSLRLSCAASGRIFFTNAMGWYRQAPGKERELVASIDDTGSTNYADSVKGRFTISRDNAKNTVYLQMNSLKPEDTATSTQGDYWGQGTQVTVSS	polyreactivity (PSR sort gate)	low polyreactivity
QVQHVESGRGLVQAGGSLRLSCAASGFIFRLYAMGWYRQAPGKERELVAAISRGGSTTYADSVKGRFTISRDNAKNTVYLQMYSLKPEDTAVYYCATEGDLVAYLYDYWGQGTQVTVSS	polyreactivity (PSR sort gate)	low polyreactivity

Note: attention shifts to another entry.
Query :: Recorded polyreactivity (PSR sort gate) for "QVQLVESGGGLVQAGGSLRLSCAASGGIFGRYAMGWYRQAPGKERELVAAISSRGGSTYYADSVKGRFTISRDNAKNTVYLQMNSLKPEDTAVYYCNALWVSYYTFRMDYWGQGTQVTVSS" , please?
Result :: high polyreactivity
